# melting point per entry
Give the quantity in °C, number only.

Check out these entries, answers already filled in.
# COMPOUND, VALUE_UNITS, melting point
measured = [
    ("COc1ccc(C=CC(=O)NNC(=O)C=Cc2ccc(OC)cc2)cc1", "°C", 288),
    ("COc1ccc(/C=C/c2nc3ccccc3n2-c2ccccn2)cc1", "°C", 146),
    ("Cc1cccc(C(=O)CSC(=S)Nc2ccc(Cl)cn2)c1", "°C", 126),
]

Now consider a different compound.
Could you tell me which melting point is on file for O=C(NC1N=C(c2ccccc2F)c2ccccc2NC1=O)OCc1ccccc1 (racemic) ?
208
